B1: EEHEE_rd4_0763 (parent)
chain: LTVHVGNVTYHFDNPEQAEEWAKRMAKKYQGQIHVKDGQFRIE

variants of: B1; experiment: folding stability dG (cDNA display proteolysis); higher = more stable; settings: PBS, room temperature
READOUT KIND: folding stability dG (kcal/mol)
Field: numeric (kcal/mol). Do not append units.

V3E 0.235
E20P -0.521
K36D 1.51
K27W 1.45

folding stability dG for `I33M` ?
1.21

Same again, this time with `M25F`
1.42

Again, but for `Q39Y`
1.37

Next variant up: `E43F`
1.69

Can you check `H34V` next?
2.26

Next record, please: `M25V`
1.23

Query `A18D` next
0.132

Now the same for `E19H`
1.72

Now give it for `N7H` too.
1.69

And what about the variant `I42G` ?
1.2

Item: `Q17K`
1.63
